inhibition at 1 µg/mL listing for selected compounds.
Biological target: HBV polymerase reverse transcriptase (HBV-RT) (Hepatitis B virus genotype D subtype ayw)
Construct: made in house; host or cells: E. coli
Test: inhibitory activity against HBV polymerase in vitro (reverse transcriptase activity)
Assay type: biochemical
Details: 1 μg/ml; read-out: Inhibitory effect of HBV-RT
READOUT_KIND: inhibition at 1 µg/mL (%)

# COMPOUND, READOUT_KIND, NUMBER
data = [
    ("CC(C)Nc1cccnc1N1CCN(C(=O)c2ccc(C(=O)N(CCO)CCO)cc2)CC1 [Compound No. 12]", "inhibition at 1 µg/mL", 63),
    ("CC(C)Nc1cccnc1N1CCN(C(=O)c2ccc(C(=O)NC(C)(C)CO)cc2)CC1 [Compound No. 34]", "inhibition at 1 µg/mL", 53),
    ("CC(C)Nc1cccnc1N1CCN(C(=O)c2ccc(C(=O)NCCN(C)C)cc2)CC1 [Compound No. 83]", "inhibition at 1 µg/mL", 65),
    ("CC(C)Nc1cccnc1N1CCN(C(=O)c2ccc(C(=O)NCCO)cc2)CC1 [Compound No. 1]", "inhibition at 1 µg/mL", 55),
]

----------
inhibition at 0.1 µg/mL listing for selected compounds.
Target: HIV reverse transcriptase (HIV-RT) (Human immunodeficiency virus type 1 group M subtype B)
Construct: purchased Boehringer Mannheim
Assay: in vitro inhibition test against HIV reverse transcriptase
Assay type: biochemical, HIV (AIDS virus)
Settings: 0.1 μg/ml; read-out: Inhibitory effect of HIV-RT
READOUT_KIND: inhibition at 0.1 µg/mL (%)

# COMPOUND, READOUT_KIND, NUMBER
rows = [
    ("CC(O)CN(CC(C)O)C(=O)c1ccc(C(=O)N2CCN(c3ncccc3NC(C)C)CC2)cc1 (centres unmarked)", "inhibition at 0.1 µg/mL", 52),
    ("CCN1CCN(C(=O)c2ccc(C(=O)N3CCN(c4ncccc4NC(C)C)CC3)cc2)CC1", "inhibition at 0.1 µg/mL", 20),
    ("CC(C)Nc1cccnc1N1CCN(C(=O)c2ccc(C(=O)N(CCO)c3ccccc3)cc2)CC1", "inhibition at 0.1 µg/mL", 43),
    ("COCCNC(=O)c1ccc(C(=O)N2CCN(c3ncccc3NC(C)C)CC2)cc1", "inhibition at 0.1 µg/mL", 32),
    ("CC(C)Nc1cccnc1N1CCN(C(=O)c2ccc(C(=O)N3CCSCC3)cc2)CC1", "inhibition at 0.1 µg/mL", 28),
    ("CC(C)Nc1cccnc1N1CCN(C(=O)c2ccc(C(=O)N(CCO)CCO)cc2)CC1", "inhibition at 0.1 µg/mL", 46),
    ("CC(C)Nc1cccnc1N1CCN(C(=O)c2ccc(C(=O)N(C)CCO)cc2)CC1", "inhibition at 0.1 µg/mL", 43),
    ("CC(C)Nc1cccnc1N1CCN(C(=O)c2ccc(C(=O)NCCN(C)C)cc2)CC1", "inhibition at 0.1 µg/mL", 62),
    ("CC(C)Nc1cccnc1N1CCN(C(=O)c2ccc(C(=O)N[C@@H](CO)C(C)C)cc2)CC1", "inhibition at 0.1 µg/mL", 25),
    ("CC(C)Nc1cccnc1N1CCN(C(=O)c2ccc(C(=O)NC(C)(C)CO)cc2)CC1", "inhibition at 0.1 µg/mL", 43),
    ("COCCN(CCOC)C(=O)c1ccc(C(=O)N2CCN(c3ncccc3NC(C)C)CC2)cc1", "inhibition at 0.1 µg/mL", 41),
    ("CCCN(CCO)C(=O)c1ccc(C(=O)N2CCN(c3ncccc3NC(C)C)CC2)cc1", "inhibition at 0.1 µg/mL", 21),
    ("CC(C)Nc1cccnc1N1CCN(C(=O)c2ccc(C(=O)N3CCN(CCO)CC3)cc2)CC1", "inhibition at 0.1 µg/mL", 45),
    ("CC(C)Nc1cccnc1N1CCN(C(=O)c2ccc(C(=O)NCCO)cc2)CC1", "inhibition at 0.1 µg/mL", 41),
    ("CC(C)Nc1cccnc1N1CCN(C(=O)c2ccc(C(=O)N3CCNCC3)cc2)CC1", "inhibition at 0.1 µg/mL", 43),
    ("CC(C)Nc1cccnc1N1CCN(C(=O)c2ccc(C(=O)NCCN3CCOCC3)cc2)CC1", "inhibition at 0.1 µg/mL", 59),
    ("CC(C)Nc1cccnc1N1CCN(C(=O)c2ccc(C(=O)N(C(C)C)C(C)C)cc2)CC1", "inhibition at 0.1 µg/mL", 52),
    ("CC(C)Nc1cccnc1N1CCN(C(=O)c2ccc(C(=O)N3CCN(CCCO)CC3)cc2)CC1", "inhibition at 0.1 µg/mL", 40),
    ("CC(C)Nc1cccnc1N1CCN(C(=O)c2ccc(C(=O)N3CCOCC3)cc2)CC1", "inhibition at 0.1 µg/mL", 43),
    ("CC(C)Nc1cccnc1N1CCN(C(=O)c2ccc(C(=O)NCCCO)cc2)CC1", "inhibition at 0.1 µg/mL", 35),
    ("CC(C)Nc1cccnc1N1CCN(C(=O)c2ccc(C(=O)N(C)CC3OCCO3)cc2)CC1", "inhibition at 0.1 µg/mL", 68),
    ("CC(C)Nc1cccnc1N1CCN(C(=O)c2ccc(C(=O)NC(CO)CO)cc2)CC1", "inhibition at 0.1 µg/mL", 57),
    ("CC(C)Nc1cccnc1N1CCN(C(=O)c2ccc(C(=O)NCCCN3CCOCC3)cc2)CC1", "inhibition at 0.1 µg/mL", 43),
    ("CC(C)Nc1cccnc1N1CCN(C(=O)c2ccc(C(=O)NCCN3CCCCC3)cc2)CC1", "inhibition at 0.1 µg/mL", 32),
    ("CC(C)Nc1cccnc1N1CCN(C(=O)c2ccc(C(=O)N[C@H](CO)CC3CCCCC3)cc2)CC1", "inhibition at 0.1 µg/mL", 43),
    ("CC(C)Nc1cccnc1N1CCN(C(=O)c2ccc(C(=O)N3CCN(CCOCCO)CC3)cc2)CC1", "inhibition at 0.1 µg/mL", 27),
    ("CC(C)Nc1cccnc1N1CCN(C(=O)c2ccc(C(=O)N[C@H](CO)C(C)C)cc2)CC1", "inhibition at 0.1 µg/mL", 20),
    ("CC(C)Nc1cccnc1N1CCN(C(=O)c2ccc(C(=O)N[C@H](CO)c3ccccc3)cc2)CC1", "inhibition at 0.1 µg/mL", 46),
    ("CC(C)Nc1cccnc1N1CCN(C(=O)c2ccc(C(=O)NCCOCCO)cc2)CC1", "inhibition at 0.1 µg/mL", 35),
]

----------
Target: HBV polymerase reverse transcriptase (HBV-RT) (Hepatitis B virus genotype D subtype ayw, UniProt P03156)
Construct: made in house; host or cells: E. coli
Sequence (P03156 whole entry): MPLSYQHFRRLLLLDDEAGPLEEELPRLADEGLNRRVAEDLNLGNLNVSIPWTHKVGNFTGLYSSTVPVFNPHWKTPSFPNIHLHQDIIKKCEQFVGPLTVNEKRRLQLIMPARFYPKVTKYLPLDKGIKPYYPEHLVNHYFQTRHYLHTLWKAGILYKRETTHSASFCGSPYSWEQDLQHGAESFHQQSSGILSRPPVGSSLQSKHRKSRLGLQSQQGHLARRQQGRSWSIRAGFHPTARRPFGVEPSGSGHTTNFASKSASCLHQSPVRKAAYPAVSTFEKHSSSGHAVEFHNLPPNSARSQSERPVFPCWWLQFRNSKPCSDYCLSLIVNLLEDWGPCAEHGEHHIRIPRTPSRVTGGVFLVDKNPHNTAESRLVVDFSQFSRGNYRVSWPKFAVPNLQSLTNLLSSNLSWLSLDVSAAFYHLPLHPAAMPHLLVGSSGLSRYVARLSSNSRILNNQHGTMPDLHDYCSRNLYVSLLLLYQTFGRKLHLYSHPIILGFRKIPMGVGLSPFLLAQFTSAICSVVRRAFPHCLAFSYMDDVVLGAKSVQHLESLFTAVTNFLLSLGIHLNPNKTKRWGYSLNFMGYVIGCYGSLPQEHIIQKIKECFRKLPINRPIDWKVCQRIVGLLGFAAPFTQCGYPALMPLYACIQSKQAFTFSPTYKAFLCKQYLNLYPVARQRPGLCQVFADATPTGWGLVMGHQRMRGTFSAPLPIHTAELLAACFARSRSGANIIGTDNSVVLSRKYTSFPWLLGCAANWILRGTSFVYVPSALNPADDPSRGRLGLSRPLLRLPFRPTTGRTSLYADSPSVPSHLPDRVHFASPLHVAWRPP
Test: inhibitory activity against HBV polymerase in vitro (reverse transcriptase activity)
Assay type: biochemical
Conditions: 0.1 μg/ml; read-out: Inhibitory effect of HBV-RT
READOUT_KIND: inhibition at 0.1 µg/mL (%)

# COMPOUND, NUMBER
rows = [
    ("CC(C)Nc1cccnc1N1CCN(C(=O)c2ccc(C(=O)N[C@H](CO)c3ccccc3)cc2)CC1", 61),
    ("CC(C)Nc1cccnc1N1CCN(C(=O)c2ccc(C(=O)N[C@@H](C)CO)cc2)CC1", 62),
    ("CCN(CCO)C(=O)c1ccc(C(=O)N2CCN(c3ncccc3NC(C)C)CC2)cc1", 30),
    ("CC(C)Nc1cccnc1N1CCN(C(=O)c2ccc(C(=O)N(CCO)CCO)cc2)CC1", 52),
    ("CC(C)Nc1cccnc1N1CCN(C(=O)c2ccc(C(=O)NCC3CCCO3)cc2)CC1 (centres unmarked)", 51),
    ("CC(C)Nc1cccnc1N1CCN(C(=O)c2ccc(C(=O)N(C)CCO)cc2)CC1", 40),
    ("CC(C)Nc1cccnc1N1CCN(C(=O)c2ccc(C(=O)N3CCN(CCOCCO)CC3)cc2)CC1", 40),
    ("CC(C)Nc1cccnc1N1CCN(C(=O)c2ccc(C(=O)N[C@@H](CO)C(C)C)cc2)CC1", 30),
]

----------
Target: HIV reverse transcriptase (HIV-RT) (Human immunodeficiency virus type 1 group M subtype B, UniProt P04585)
Construct: purchased Boehringer Mannheim
Experiment: in vitro inhibition test against HIV reverse transcriptase
Type: biochemical, HIV (AIDS virus)
Conditions: 1 μg/ml; read-out: Inhibitory effect of HIV-RT
READOUT_KIND: inhibition at 1 µg/mL (%)

# COMPOUND, READOUT_KIND, NUMBER
measured = [
    ("CC(C)Nc1cccnc1N1CCN(C(=O)c2ccc(C(=O)N(C)CCO)cc2)CC1", "inhibition at 1 µg/mL", 71),
    ("CC(C)Nc1cccnc1N1CCN(C(=O)c2ccc(C(=O)N3CCN(CCO)CC3)cc2)CC1", "inhibition at 1 µg/mL", 55),
    ("CC(C)Nc1cccnc1N1CCN(C(=O)c2ccc(C(=O)NCCCO)cc2)CC1", "inhibition at 1 µg/mL", 40),
    ("CC(C)Nc1cccnc1N1CCN(C(=O)c2ccc(C(=O)N[C@H](CO)c3ccccc3)cc2)CC1", "inhibition at 1 µg/mL", 51),
    ("CC(O)CN(CC(C)O)C(=O)c1ccc(C(=O)N2CCN(c3ncccc3NC(C)C)CC2)cc1 (centres unmarked)", "inhibition at 1 µg/mL", 65),
]
